meta.source: ChEMBL document CHEMBL3875167

measured-on: Aldo-keto reductase family 1 member B1 (Rattus norvegicus, UniProt P07943)
pIC50: −log10 of the molar value.
# pIC50 >= 6 gives true (1), anything below gives false (0)

Ask | Hi team, for COc1cccc2c1OCC(C(=O)N1CCC[C@H]1c1ncc(-c3ccccc3)[nH]1)=C2 , is the recorded pIC50 at or above 6?
Reply | false (0)

Ask | Hi team, for COc1cccc2c1OCC(C(=O)N1CCC[C@H]1c1ncc(-c3ccc(Cl)cc3)[nH]1)=C2 , is the recorded pIC50 at or above 6?
Reply | true (1)

Ask | Hi team, for COc1ccc(-c2cnc(CNC(=O)C3=Cc4ccccc4OC3)[nH]2)cc1 , is the recorded pIC50 at or above 6?
Reply | true (1)

Ask | Hi team, for O=C(NCc1ncc(-c2ccccc2)[nH]1)C1=Cc2ccccc2OC1 , is the recorded pIC50 at or above 6?
Reply | false (0)

Ask | Hi team, for COc1cccc2c1OCC(C(=O)N1CCC[C@H]1c1ncc(-c3cccnc3)[nH]1)=C2 , is the recorded pIC50 at or above 6?
Reply | true (1)

----------
measurement-type: pIC50
Just so you know, pIC50 here is -log10 of the concentration in molar units; reply with that number alone.

Ask | Specify pIC50 for O=C(NCc1ncc(-c2ccc(Br)cc2)[nH]1)C1=Cc2ccccc2OC1 , system Aldo-keto reductase family 1 member A1 (Rattus norvegicus, UniProt P51635).
Reply | 5.47

Ask | Specify pIC50 for COc1cccc2c1OCC(C(=O)NCc1ncc(-c3ccc(Br)cc3)[nH]1)=C2 , system Aldo-keto reductase family 1 member A1 (Rattus norvegicus, UniProt P51635).
Reply | 5.81

Ask | Specify pIC50 for O=C(C1=Cc2ccccc2OC1)N1CCC[C@H]1c1ncc(-c2cccnc2)[nH]1 , system Aldo-keto reductase family 1 member A1 (Rattus norvegicus, UniProt P51635).
Reply | 5.61

Ask | Specify pIC50 for COc1cccc2c1OCC(C(=O)NCc1ncc(-c3ccc(Cl)cc3)[nH]1)=C2 , system Aldo-keto reductase family 1 member A1 (Rattus norvegicus, UniProt P51635).
Reply | 5.84

Ask | Specify pIC50 for COc1cccc2c1OCC(C(=O)NCc1ncc(-c3ccccc3)[nH]1)=C2 , system Aldo-keto reductase family 1 member A1 (Rattus norvegicus, UniProt P51635).
Reply | 5.92

Ask | Specify pIC50 for COc1cccc2c1OCC(C(=O)N[C@H](c1ncc(-c3ccccc3)[nH]1)C(C)C)=C2 , system Aldo-keto reductase family 1 member A1 (Rattus norvegicus, UniProt P51635).
Reply | 5.31

Ask | Specify pIC50 for O=C(C1=Cc2ccccc2OC1)N1CCC[C@H]1c1ncc(-c2ccc(Cl)cc2)[nH]1 , system Aldo-keto reductase family 1 member A1 (Rattus norvegicus, UniProt P51635).
Reply | 5.41

Ask | Specify pIC50 for O=C(C1=Cc2ccccc2OC1)N1CCC[C@H]1c1ncc(-c2ccccc2)[nH]1 , system Aldo-keto reductase family 1 member A1 (Rattus norvegicus, UniProt P51635).
Reply | 5.24

Ask | Specify pIC50 for CC(C)[C@H](NC(=O)C1=Cc2ccccc2OC1)c1ncc(-c2ccccc2)[nH]1 , system Aldo-keto reductase family 1 member A1 (Rattus norvegicus, UniProt P51635).
Reply | 5.03
